# Test system: SK-MEL-5 melanoma
# METHOD_NOTES: NCI-60 one-dose screen, 48 h
# CONDITIONS_USED: 10 µM unless noted
# Description: Growth inhibition of the SK-MEL-5 human tumor cell line is measured as a screen for anti-cancer activity. Cells are grown in 96 well plates and exposed to the test compound for 48 hours. Compounds are tested at a single concentration, which is 10^-5 M for most compounds. The reported endpoint is percent growth (GI% or GIPRCNT), where numbers from 0 - 100% represent growth inhibition, and numbers from -100% - 0 represent cell death. For example, a value of 40 represents 60% growth inhibition. […]
About 83,000 compounds went through this panel and 20% of them were active in at least one assay; those are over-represented in the sample as a whole. Calls of active or inactive are those of the source. How the source made its calls: active means growth percent below 10; inactive means the rest.
Possible outcomes: True = active, False = inactive

{"columns": ["MOLECULE", "DISCRETE_LABEL"],
 "data": [
  ["CCNCCNc1cc(-c2ccc(Cl)c(Cl)c2)c(C#N)c2nc3ccccc3n12", "True"],
  ["Cc1ncc(-c2ccnc(Nc3ccc(S(C)(=O)=O)cc3)n2)n1C(C)C", "True"],
  ["CCN1CCN(c2cc(C)nc(N(CCCNc3ccnc4cc(Cl)ccc34)Cc3ccc4c(c3)OCO4)n2)CC1", "True"],
  ["O=C(c1ccccc1)C(c1ccccc1)N1CCOCC1 (configuration not stated)", "False"],
  ["COc1cc(Nc2ncc3c(n2)-c2ccc(Cl)cc2C(c2c(F)cccc2OC)=NC3)ccc1C(=O)O", "False"],
  ["O=C(Nc1cn[nH]c1-c1nc2ccc(CN3CCOCC3)cc2[nH]1)NC1CC1", "False"],
  ["O=C(Cc1ccc(-c2ccc(OCCN3CCOCC3)cc2)cn1)NCc1ccccc1", "True"],
  ["Cc1cnc(Nc2ccc(OCCN3CCCC3)cc2)nc1Nc1cccc(S(=O)(=O)NC(C)(C)C)c1", "True"],
  ["CO[C@H]1C[C@@H]2CC[C@@H](C)[C@@](O)(O2)C(=O)C(=O)N2CCCC[C@H]2C(=O)O[C@H]([C@H](C)C[C@@H]2CC[C@@H](OP(C)(C)=O)[C@H](OC)C2)CC(=O)[C@H](C)/C=C(\\C)[C@@H](O)[C@@H](OC)C(=O)[C@H](C)C[C@H](C)\\C=C/C=C/C=C/1C", "False"],
  ["NC1(c2ccc(-c3nc4ccn5c(=O)[nH]nc5c4cc3-c3ccccc3)cc2)CCC1", "True"],
  ["COc1ccc2c(CCCCC(c3ccccc3)c3ccccc3)c3[n+](cc2c1OC)CCc1cc2c(cc1-3)OCO2", "True"],
  ["COC(=O)[C@]12CC[C@@H](C)[C@H](C)[C@@H]1C1=CC[C@@H]3[C@@]4(C)C(C=O)=C[C@@](C)(COS(C)(=O)=O)C4=CC[C@@]3(C)[C@]1(C)CC2", "True"],
  ["COc1cc(C2CC(c3ccc(Cl)cc3)=NN2c2ccc(Cl)cc2)cc(OC)c1OC (configuration not stated)", "False"],
  ["N#Cc1c(-c2ccc(C(F)(F)F)cc2)cc(NCC2CCS(=O)(=O)CC2)n2c1nc1ccccc12", "False"],
  ["Cc1cc(N2CCCC2)nc(N(CCCNc2ccnc3cc(Cl)ccc23)Cc2ccc3c(c2)OCO3)n1", "True"],
  ["CCc1nc2cc(/C=C/C(=O)NO)ccc2c(=O)n1CCc1ccc(OC)cc1", "True"],
  ["COc1ccc(CCCc2c3[n+](cc4c(OC)c(OC)ccc24)CCc2cc4c(cc2-3)OCO4)cc1", "False"]
]}
